Sourced from the supplement of paper PMC12764529

# folding stability dG unfold per entry
Test: folding stability dG unfold from trypsin proteolysis; higher = more stable
Numeric answer only, unit kcal/mol assumed.

- polymer.sequence: "SAGGETKTFTIDEIRAKLKEALDNGIDEVRITVFRDGKEEEITIPASKLDEIIASLPPDATVRIERVSAGGS [r16_636_TrROS_Hall]"
  measure.unit: "kcal/mol"
  folding stability dG unfold: 2.02
- polymer.sequence: "SAGGSAGGSMPLKLVELKPLEESTGENGVPTVRVELVLERPGERITVELEVSPEEIEALIKKLLSAGGSAGG [r6_379_JUSTAS]"
  measure.unit: "kcal/mol"
  folding stability dG unfold: 2.03
- polymer.sequence: "SAMTVYYKITAEVEKTIGDTPETLTVPLTLTVPPDKLNEEEIKKIAEEKAKELGYTLKKIEISKTPSLPSAG [r14_278_JUSTAS]"
  measure.unit: "kcal/mol"
  folding stability dG unfold: 2.22
- polymer.sequence: "SAGGSAAITFPSDKTATVLSEEYDPVKKTTTVKMKVGNKEVTATLSPDGTVTIKLPDGKEETYPVGSAGGSA [r15_111_JUSTAS]"
  measure.unit: "kcal/mol"
  folding stability dG unfold: 1.18
- polymer.sequence: "SAGGSAGGGFILEVDPEKGVAVAYFDPSTGEVVVAVPEGPVYRFASAEEVVAATGKPVVIVPATSAGGSAGG [r6_752_TrMRF]"
  measure.unit: "kcal/mol"
  folding stability dG unfold: 1.17
- polymer.sequence: "SAGGSAGGSALDDFKIEEVQYDPDGNTIRFIFKFPGQVWILRIRMPKNGKMEIEWIPADDISAGGSAGGSAG [r3_167_TrROS]"
  measure.unit: "kcal/mol"
  folding stability dG unfold: 3.96
- polymer.sequence: "SAGGSAGGSAGGLLKLKLKLKYEFTFKDENGNTYKVEKELTLVLELPPINETGKKNLVLSAGGSAGGSAGGS [r10_168_TrMRF]"
  measure.unit: "kcal/mol"
  folding stability dG unfold: 2.07
- polymer.sequence: "SAGGMTVSVTADGSSYTATVKLPDGTTLTVPFTSLEELATQVREEYEKAFPDVPLERLVLEDISPTAPSAGG [r13_887_JUSTAS]"
  measure.unit: "kcal/mol"
  folding stability dG unfold: 1.77

Prompt: Using the record for SAGGSAGGSAGGSEEEIKKLAAEGGSFTATIPVVTPDGKPVEKTVTVEVKTDPKTGKLVSAGGSAGGSAGGS [r10_346_JUSTAS] , report its folding stability dG unfold.
Response: 0.482

Prompt: Given the sequence SAGGSVDIKRIEIYHPPDDKIYIRIDAVASPEHPEDPELRKAQAEALRKPVIEELMKKLGIEPEELSAGGSA [r2_306_JUSTAS] , what is its reported folding stability dG unfold?
Response: 0.241
